Target: T1, Ac-LDL binding to His9-hMSR1 (Homo sapiens, UniProt P21757)
T1 construct: human MSR1 extracellular domain expressed with a N-terminal nonahistidine tag; purchased R&D Systems 2708-MS
T1 sequence (P21757 77-451 limits assumed): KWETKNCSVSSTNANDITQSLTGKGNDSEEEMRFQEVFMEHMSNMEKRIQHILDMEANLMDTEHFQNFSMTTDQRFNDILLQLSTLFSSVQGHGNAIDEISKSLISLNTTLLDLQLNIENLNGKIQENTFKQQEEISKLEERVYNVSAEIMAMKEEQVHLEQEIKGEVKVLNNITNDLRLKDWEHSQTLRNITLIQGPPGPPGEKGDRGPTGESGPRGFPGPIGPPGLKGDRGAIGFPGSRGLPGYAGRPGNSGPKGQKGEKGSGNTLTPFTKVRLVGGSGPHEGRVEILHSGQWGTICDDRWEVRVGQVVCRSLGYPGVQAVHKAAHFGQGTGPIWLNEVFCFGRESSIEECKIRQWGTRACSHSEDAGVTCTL
Experiment: Competition sandwich ELISA, Ac-LDL
Conditions: anti-MSR1 antibody 100 nM, 50 pM Ac-LDL
The reader will find reported % Blocking of Ac-LDL binding to His9-hMSR1 values listed item by item below.
Write down the value, and be sure its unit follows.

[[record]]
molecule = "H1H21231N-N297Q: modified version of \"21231N (H1H21231N-N297Q) anti-MSR1 antibodies\" with \"a N297Q single point mutation\" (antibody, V domains shown) VH: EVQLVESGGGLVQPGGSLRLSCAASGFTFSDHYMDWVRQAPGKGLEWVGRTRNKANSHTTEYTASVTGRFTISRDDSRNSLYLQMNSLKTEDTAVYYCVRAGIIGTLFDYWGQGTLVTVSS VL: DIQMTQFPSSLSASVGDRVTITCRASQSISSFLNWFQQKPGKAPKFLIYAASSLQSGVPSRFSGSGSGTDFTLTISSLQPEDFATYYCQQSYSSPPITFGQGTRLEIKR"
observed = "−60%"


We next turn to a different molecule, shown below.
Task item: What does the record list as % Blocking of Ac-LDL binding to His9-hMSR1 for H1H21227N-N297Q: "modified versions of 21227N (H1H21227N-N297Q and H1H21227N-N297D)"; anti-MSR1 antibody "with a N297Q single point mutation" (antibody, V domains shown) VH: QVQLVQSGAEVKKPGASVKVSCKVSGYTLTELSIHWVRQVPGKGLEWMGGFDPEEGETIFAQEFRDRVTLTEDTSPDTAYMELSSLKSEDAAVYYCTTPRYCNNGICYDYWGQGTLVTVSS VL: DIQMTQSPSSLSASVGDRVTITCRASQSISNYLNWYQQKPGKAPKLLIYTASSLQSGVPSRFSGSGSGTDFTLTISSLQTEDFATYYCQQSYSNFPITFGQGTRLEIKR ?
Reply: 105%
